# experimental system: Trx-6×His-BCL6 (human BCL6 BTB domain covering amino-acid sequence 5-129) (Homo sapiens (Human), UniProt P41182)
# test: HTRF in vitro assay (BCL6 / BCOR-AF633 peptide)
# Type: binding
# test conditions: further generated data; 1 nM Trx-6×His-BCL6, 300 nM BCOR-AF633 peptide, 0.5 nM anti-6×His-Terbium cryptate
endpoint name: HTRF pIC50
Give the figure only, with no unit attached.

Exam item: Please give the measured HTRF pIC50 for this compound: Cn1c(=O)n(CCC(C)(C)O)c2cc(Nc3nc(-n4ccc(C(F)(F)F)n4)ncc3Cl)ccc21 [Example 15d]
Marked response: 6.41

Exam item: Given C[C@@H]1CN(c2ncc(Cl)c(Nc3cnc4c(c3)n(CCC(C)(C)O)c(=O)n4CCC(C)(C)O)n2)C[C@H](C)C1(F)F [Example 35r] , state its recorded HTRF pIC50.
Marked response: 5.98

Exam item: Returns the measured HTRF pIC50 for the input compound. Input: COCC(C)(O)CCn1c(=O)n(C)c2ccc(Nc3ccnc(Cl)c3C#N)cc21 (stereo not shown) [Example 27b]
Marked response: 6.14

Exam item: I have this compound here, Cn1c(=O)n(CCC(C)(C)O)c2cc(Nc3nc(N4C5CC6CC(C5)CC4C6)ncc3Cl)ccc21 [Example 35t] , and I need its recorded HTRF pIC50.
Marked response: 6.46

Exam item: Reported HTRF pIC50 for CC(C)(O)CCn1c(=O)n(CCC(C)(C)O)c2cc(Nc3nc(N4CC(C)(C)OC(C)(C)C4)ncc3Cl)ccc21 [Example 35k] : what is it?
Marked response: 6.56

Exam item: Tell me the measured HTRF pIC50 of CN1CC(Cn2c(=O)n(C)c3ccc(Nc4nc(N5CC(C)(C)OC(C)(C)C5)ncc4Cl)cc32)(C(C)(C)O)OC1=O (stereo not shown) [Example 20b] , please.
Marked response: 6.01

Exam item: // lookup HTRF pIC50 for C[C@@H]1CN(c2ncc(Cl)c(Nc3ccc4c(c3)n(CCC(C)(C)O)c(=O)n4CCN3CCOCC3)n2)C[C@H](C)C1(F)F [Example 37b]
Marked response: 6.47

----------
# experimental system: BCL6-NCOR2(SMRT) corepressor protein-protein interaction (Homo sapiens (Human))
# test: NanoBRET cell assay
# Type: cell-based
# test conditions: further generated data; transfected HEK293T cells, 6 hr; read-out: NanoBRET cell pIC50 (converted)
endpoint name: IC50 (nM)
Number only, in nM; omit the unit.

Exam item: Find IC50 (BCL6-NCOR2(SMRT) corepressor protein-protein interaction (Homo sapiens (Human))) for the entry CCC(C)(O)CCn1c(=O)n(C)c2ccc(Nc3nc(N4CCC(C(=O)N(C)C)CC4)ncc3Cl)cc21 (stereo not shown) [Example 15l]
Marked response: 1320

Exam item: Provide value of IC50 for this record tested with BCL6-NCOR2(SMRT) corepressor protein-protein interaction (Homo sapiens (Human)): Cn1c(=O)n(CCC(C)(C)O)c2cc(Nc3nc(-n4ccc(C(F)(F)F)n4)ncc3Cl)ccc21 [Example 15d]
Marked response: 1290

Exam item: Enter reported IC50 observed with BCL6-NCOR2(SMRT) corepressor protein-protein interaction (Homo sapiens (Human)) for Cn1c(=O)n(CCC(C)(C)O)c2cc(Nc3nc(N4[C@@H]5CCC[C@H]4CC5)ncc3Cl)ccc21 [Example 35m]
Marked response: 741

Exam item: Param readout= IC50; system= BCL6-NCOR2(SMRT) corepressor protein-protein interaction (Homo sapiens (Human)); entry= Cc1cc(C)n(-c2cc(Nc3ccc4c(c3)n(CCC(C)(C)O)c(=O)n4C)c(Cl)cn2)n1 [Example 30a] ; returns value.
Marked response: 3090

----------
# experimental system: Trx-6×His-BCL6 (human BCL6 BTB domain covering amino-acid sequence 5-129) (Homo sapiens (Human), UniProt P41182)
# test: HTRF in vitro assay (BCL6 / BCOR-AF633 peptide)
# Assay type: binding
# test conditions: further generated data; 1 nM Trx-6×His-BCL6, 300 nM BCOR-AF633 peptide, 0.5 nM anti-6×His-Terbium cryptate
endpoint name: HTRF pIC50
Give the figure by itself; no unit, no explanation.

Exam item: # input molecule: C[C@@H]1CCN(c2ncc(Cl)c(Nc3ccc4c(c3)n(CCC(C)(C)O)c(=O)n4C)n2)C[C@H](C)C1 [Example 35y] ; wanted: its HTRF pIC50
Marked response: 5.70

Exam item: Quick one: HTRF pIC50 of C[C@@H]1C[C@H](O)CN(c2ncc(Cl)c(Nc3ccc4c(c3)n(CCC(C)(C)O)c(=O)n4C)n2)C1 [Example 35x] ?
Marked response: 7.01

Exam item: Param item = C[C@@H]1CN(c2ncc(Cl)c(Nc3ccc4c(c3)n(CCC(C)(C)O)c(=O)n4C)n2)C[C@H](C)N1C [Example 35l] ; retrieve measured HTRF pIC50.
Marked response: 6.76

Exam item: What value of measured HTRF pIC50 is listed for CC(C)Nc1ncc(Cl)c(Nc2ccc3c(c2)n(CCC(C)(C)O)c(=O)n3C)n1 [Example 20f] ?
Marked response: 5.99

Exam item: # lookup: HTRF pIC50 of CNC(=O)c1cc(Nc2ccc3c(c2)n(CCC(C)(C)O)c(=O)n3C)c(C#N)c(Cl)n1 [Example 1a]
Marked response: 6.22

Exam item: Quick one: HTRF pIC50 of Cn1c(=O)n(CCC(C)(C)O)c2cc(Nc3cc(C(F)(F)F)ncc3Cl)ccc21 [Example 29d] ?
Marked response: 5.48

Exam item: For COC(=O)C1CCCC1Cn1c(=O)n(C)c2ccc(Nc3ccnc(Cl)c3C#N)cc21 (stereo not shown) [Example 11] , what is its reported HTRF pIC50?
Marked response: 5.72

----------
Give HTRF pIC50 for every item shown.
# experimental system: Trx-6×His-BCL6 (human BCL6 BTB domain covering amino-acid sequence 5-129) (Homo sapiens (Human))
# test: HTRF in vitro assay (BCL6 / BCOR-AF633 peptide)
# Format: binding
# test conditions: further generated data; 1 nM Trx-6×His-BCL6, 300 nM BCOR-AF633 peptide, 0.5 nM anti-6×His-Terbium cryptate

Exam item: Given Cn1c(=O)n(CCC(C)(C)O)c2cc(Nc3nc(N4[C@@H]5CCC[C@H]4CC5)ncc3Cl)ccc21 [Example 35m] , state its recorded HTRF pIC50.
Marked response: 6.81

Exam item: I am curious: what HTRF pIC50 value has been reported for Cn1c(=O)n(CCC(C)(C)O)c2cc(Nc3cc(Br)ncc3Cl)ccc21 [Example 22b] ?
Marked response: 5.65

Exam item: Give the measured HTRF pIC50 of CCNC(=O)c1cc(Nc2ccc3c(c2)n(CCC(C)(C)O)c(=O)n3C)c(Cl)cn1 .
Marked response: 6.29

Exam item: Need HTRF pIC50 of Cc1ccnn1-c1ncc(Cl)c(Nc2ccc3c(c2)n(CCC(C)(C)O)c(=O)n3C)n1 [Example 16b] , thanks.
Marked response: 6.31

Exam item: What does the record list as HTRF pIC50 for CCOC(=O)c1cc(Nc2ccc3c(c2)n(CCC(C)C(=O)OC)c(=O)n3C)n2nccc2n1 (centres unmarked) ?
Marked response: 6.01

Exam item: Could you share which HTRF pIC50 value was measured for Cn1c(=O)n(C)c2cc(Nc3cc(C(=O)O)nc(Cl)c3C#N)ccc21 ?
Marked response: 6.08

Exam item: Give the measured HTRF pIC50 of CCC1(Cn2c(=O)n(C)c3ccc(Nc4nc(N5C[C@@H](C)O[C@@H](C)C5)ncc4Cl)cc32)CN(C)C(=O)O1 (some centres unmarked) [Example 20l] .
Marked response: 6.39

Exam item: Find the recorded HTRF pIC50 belonging to C[C@@H]1CN(c2ncc(Cl)c(Nc3ccc4c(c3)n(CCC(C)(C)O)c(=O)n4C)n2)C[C@@H](C2CC2)O1 [Example 21b] and report it.
Marked response: 7.01

----------
Please provide measured HTRF pIC50 for the entries that follow.
# experimental system: Trx-6×His-BCL6 (human BCL6 BTB domain covering amino-acid sequence 5-129) (Homo sapiens (Human), UniProt P41182)
# test: HTRF in vitro assay (BCL6 / BCOR-AF633 peptide)
# Type: binding
# test conditions: further generated data; 1 nM Trx-6×His-BCL6, 300 nM BCOR-AF633 peptide, 0.5 nM anti-6×His-Terbium cryptate
Enter a number only.

Exam item: I have this compound here, COC(=O)C(C)Cn1c(=O)n(C)c2ccc(Nc3ccnc(Cl)c3C#N)cc21 (stereo not shown) , and I need its recorded HTRF pIC50.
Marked response: 5.35

Exam item: Given the compound CN(C)c1ncc(Cl)c(Nc2ccc3c(c2)n(CCC(C)(C)O)c(=O)n3C)n1 [Example 15g] , what is its reported HTRF pIC50?
Marked response: 5.89

Exam item: Can you look up the measured HTRF pIC50 of CC1CCCN(c2ncc(Cl)c(Nc3ccc4c(c3)n(CCC(C)(C)O)c(=O)n4C)n2)C1.O=CO (stereo not shown) [Example 20g] for me?
Marked response: 6.07

Exam item: Which HTRF pIC50 reading was recorded for the compound Cn1ccnc1-c1ncc(Cl)c(Nc2ccc3c(c2)n(CCC(C)(C)O)c(=O)n3C)n1 [Example 24a] ?
Marked response: 6.33
